- Test system: HL-60(TB) leukemia
- protocolDetails: NCI-60 one-dose screen, 48 h
- testContext: 10 µM unless noted
About 83,000 compounds went through this panel and 20% of them were active in at least one assay; those are over-represented in the sample as a whole. Activity calls are given as the source filed them. The calls were made as follows: active = growth percent below 10; inactive = the rest.
Outcomes: active, inactive

>  <compound>
c1coc(CNc2ccnc(Nc3ccc(OCCN4CCCCC4)cc3)n2)c1

>  <classAssignment>
inactive

$$$$
>  <compound>
CCCCCCCCCCCCNC(=S)N/N=C/c1ccccc1O

>  <classAssignment>
inactive

$$$$
>  <compound>
CC(C)c1ccc(Nc2n[nH]c(=S)s2)cc1

>  <classAssignment>
inactive

$$$$
>  <compound>
Nc1ccccc1NC(=O)c1ccc(CN2CCC/C(=C\c3ccccn3)C2=O)cc1

>  <classAssignment>
active

$$$$
>  <compound>
CCC(=O)N1C/C(=C/c2ccc(Br)cc2)C(=O)/C(=C/c2ccc(Br)cc2)C1

>  <classAssignment>
active

$$$$
>  <compound>
COc1ccc(NC(=O)C2CC3C=CC2C3)c([N+](=O)[O-])c1 (centres undefined)

>  <classAssignment>
inactive

$$$$
>  <compound>
O=C1/C(=C\c2cccn2Cc2ccc(F)cc2)c2ccccc2N1c1c(Cl)cccc1Cl

>  <classAssignment>
inactive

$$$$
>  <compound>
CCNCCNc1cc(C2CCCC2)c(C#N)c2nc3ccccc3n12

>  <classAssignment>
active

$$$$
>  <compound>
COc1cc(C2CC(c3cccc(Nc4ccncc4)c3)=NN2c2ccccc2)cc(OC)c1OC (centres undefined)

>  <classAssignment>
active

$$$$
